# credit: ChEMBL document CHEMBL4689842

Listing: Population Mitotic Cells (%) of selected compounds
system: HEK-293T; experiment: Multiplex assay against HEK293T; type: toxicity, cell-based; conditions: human, 24 h, 10 µM, compound concentration 10 uM, replicate 1
// units = %; emit number, no label

Completed entries (count: 6):
{"compound": "COc1cc(Nc2nccc(-c3cnn4nc(OC)ccc34)n2)cc(C(F)(F)F)c1", "measured-property": "Population Mitotic Cells (%)", "reading": 24}
{"compound": "CC(C)(C)NC[C@H](O)COc1nsnc1N1CCOCC1", "measured-property": "Population Mitotic Cells (%)", "reading": 55}
{"compound": "COc1ccccc1CN[C@H]1C2CCN(CC2)[C@H]1C(c1ccccc1)c1ccccc1", "measured-property": "Population Mitotic Cells (%)", "reading": 18}
{"compound": "CC(C)OC(=O)N1CCC(Oc2ncnc3c2cnn3-c2ccc(S(C)(=O)=O)cc2F)CC1", "measured-property": "Population Mitotic Cells (%)", "reading": 53}
{"compound": "Cl.O=C(O)c1cc(-c2ccc(C3CCNCC3)cc2)c2ccc(-c3ccc(C(F)(F)F)cc3)cc2c1", "measured-property": "Population Mitotic Cells (%)", "reading": 34}
{"compound": "C[C@]12CC[C@@H]3c4ccc(O)cc4CC[C@H]3[C@@H]1CC[C@@H]2O", "measured-property": "Population Mitotic Cells (%)", "reading": 60}

Under HEK-293T: Population Mitotic Cells (%) value of `C=CC(=O)Nc1ccc2[nH]c(=O)n(C3CCN(Cc4ccc(-c5nc6cc[nH]c(=O)c6cc5-c5ccccc5)cc4)CC3)c2c1` ?
65

Under HEK-293T: Population Mitotic Cells (%) value of `CNC(=O)Nc1ccc2c(c1)[C@@]1(CC2)OC(=O)N(CC(=O)N(Cc2ccc(F)cc2)[C@@H](C)C(F)(F)F)C1=O` ?
66
